Tested on: NCI-H226 lung
Test: NCI-60 one-dose screen, 48 h
Conditions: 10 µM unless noted
This is part of a sample that, as a whole, favours compounds with a hit. Of some 83,000 tested, about 20% had one in any assay. Active and inactive are the calls of the source. Rule for the calls: active = growth percent below 10; inactive = the rest.
Outcomes: active, inactive

> print(dat)
                                    compound  qualitative.label
 1  Fc1ccccc1-c1nc(-c2nc3cc(Cl)c(Cl)cc3[nH]2)c2ccccn12           inactive
 2         Nc1cc2c(cc1C(=O)c1cccc(F)c1)OCCO2           inactive
 3  COc1cc(-c2nn(-c3cccc(NC(=O)c4ccc(Cl)c(C(F)(F)F)c4)c3)cc2-c2ccncc2)ccc1Cl           inactive
 4       COc1ccc(-c2nc(N3CCCC3=O)sc2Br)cc1OC           inactive
 5  CCCCCCCCC(C)OC(=O)c1nn(C(C)=O)c2ccccc12 (stereo not given)           inactive
 6  O=C(Nc1ccc2c(c1)OCCO2)C(=O)c1c[nH]c2ccccc12           inactive
 7  COc1cc(-c2nn(-c3cccc(NC(=O)Nc4cccc(C(F)(F)F)c4)c3)cc2-c2ccncc2)ccc1Cl             active
 8  N[C@@H]1CCN(C(=O)c2cc3cc(Cl)c(F)c(F)c3[nH]2)C1           inactive
 9  Cc1cc(C)n(-c2nnc3n2N=C(c2ccc(-c4ccccc4)cc2)CS3)n1           inactive
10  CN1CCN(CCCOc2ccc3nc(Nc4ccc(Cl)c(C(F)(F)F)c4)ccc3c2)CC1           inactive
11  COc1ccc2[nH]c(C(=O)OCc3ccc4c(Cl)cc(Cl)c(O)c4n3)cc2c1             active
12  Cc1ccc(S(=O)(=O)n2cc(C(=O)C(=O)N3CCOCC3)c3ccccc32)cc1           inactive
13       CC(C)CSc1nc(NN)c(C#N)c(-c2ccccc2)n1           inactive
14  COc1cc(/C=C/C(=O)c2cccc(-n3cc(-c4cc(OC)c(OC)c(OC)c4)[nH]c3=O)c2)cc(OC)c1OC           inactive
15  N#Cc1c(-c2ccccc2)nc(SCC(=O)N2CCN(c3ccccc3)CC2)[nH]c1=O           inactive
16  COc1ccc2cc(-c3ccc(-c4ccc(C(=N)N)cc4)s3)ccc2c1           inactive
17  CCN(CC)CCCC(C)Nc1c2ccc(Cl)cc2nc2cc(OC)c(OC)cc12 (stereo not given)           inactive
18  CN1CCN(Cc2ccc(NC(=O)c3nc4ccc5[nH]ncc5c4c4c3CCC4)cc2C(F)(F)F)CC1           inactive
19  CCCN=C1NC(=O)/C(=C/c2nc(-c3ccc(OC)cc3)n3ccccc23)S1           inactive
20            COc1ccc(CCNC2=CC(=O)CCC2)cc1OC           inactive

###

Tested on: BT-549 breast
Test: NCI-60 one-dose screen, 48 h
Conditions: 10 µM unless noted
Compounds without any hit were thinned out: in the full panel of roughly 83,000, 20% have a hit. Calls of active or inactive are those of the source. The calls were made as follows: active = growth percent below 10; inactive = the rest.
Possible outcomes: y (active), n (inactive)

> print(dat)
                                 smiles.str  qualitative.label
1  N=C(N)c1ccc(-c2ccc(-c3ccc(-c4cccs4)s3)s2)cc1                  n
2                 CCc1cnc(=S)n(-c2ccccc2)c1                  n
3  CC(C)C1=CC2=C(C=O)C[C@@H]3[C@](C)(CCC[C@@]3(C)C(=O)OCC#CCN3CCCC3)[C@H]2CC1                  n
4  COc1ccc2c(c1)[nH]c(=O)c1c3cc(C)c(C)cc3cn21                  y
5  CN(C)CCN1C(=O)c2ccc3c4c(ccc(c24)C1=O)C(=O)N(CCN=C=S)C3=O                  y
